Consider the following binders; for each one, report its Kd.
# SYSTEM NAME: T1, eTau 2
# T1 construct: member of the group m9
# T1 polypeptide: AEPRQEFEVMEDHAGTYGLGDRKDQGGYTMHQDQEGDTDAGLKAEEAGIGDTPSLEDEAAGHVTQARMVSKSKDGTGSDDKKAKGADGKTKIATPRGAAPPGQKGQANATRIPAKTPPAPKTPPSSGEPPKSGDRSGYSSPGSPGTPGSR
# ASSAY: relative binding affinity, method not named (Table 4)
Give bare numbers, in nM.

input: Query: Kd; subject: humanized IPN002 variant VH2/Vk2 (antibody, V domains shown) VH: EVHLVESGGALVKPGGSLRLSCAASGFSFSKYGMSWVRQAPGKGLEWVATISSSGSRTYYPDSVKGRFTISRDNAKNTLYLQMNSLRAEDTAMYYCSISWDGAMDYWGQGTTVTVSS VL: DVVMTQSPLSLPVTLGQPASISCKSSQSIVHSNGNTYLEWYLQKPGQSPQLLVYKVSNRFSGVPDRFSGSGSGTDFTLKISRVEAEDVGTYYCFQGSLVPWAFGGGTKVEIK
output: 0.283

input: Give its Kd value. Item: VH3/Vk1 (antibody, V domains shown, member of the group m7; also called humanized IPN002 variant VH3/Vk1) VH: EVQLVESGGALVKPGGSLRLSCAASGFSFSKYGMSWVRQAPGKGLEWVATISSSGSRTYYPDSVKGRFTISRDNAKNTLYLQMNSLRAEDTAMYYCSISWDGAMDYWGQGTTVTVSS VL: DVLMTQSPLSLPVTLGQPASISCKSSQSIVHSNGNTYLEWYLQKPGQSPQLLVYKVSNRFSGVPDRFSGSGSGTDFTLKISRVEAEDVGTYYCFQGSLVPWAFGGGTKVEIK
output: 0.705

input: What value of measured Kd is listed for VH2/Vk4 (antibody, V domains shown, member of the group m7; also called humanized IPN002 variant VH2/Vk4) VH: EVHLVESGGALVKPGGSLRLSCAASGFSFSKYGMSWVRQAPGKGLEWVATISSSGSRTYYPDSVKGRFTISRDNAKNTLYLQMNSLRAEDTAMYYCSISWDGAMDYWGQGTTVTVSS VL: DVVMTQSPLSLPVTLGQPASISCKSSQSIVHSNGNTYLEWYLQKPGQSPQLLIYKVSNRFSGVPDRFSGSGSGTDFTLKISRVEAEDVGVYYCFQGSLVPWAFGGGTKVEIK ?
output: 0.354

Turning now to a further binder:
input: Look at this binder and give its reported Kd. VH4/Vk4 (antibody, V domains shown, member of the group m7; also called humanized IPN002 variant VH4/Vk4) VH: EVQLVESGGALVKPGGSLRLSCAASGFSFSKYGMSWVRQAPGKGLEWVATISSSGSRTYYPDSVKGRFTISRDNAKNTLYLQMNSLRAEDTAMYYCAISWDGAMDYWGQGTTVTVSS VL: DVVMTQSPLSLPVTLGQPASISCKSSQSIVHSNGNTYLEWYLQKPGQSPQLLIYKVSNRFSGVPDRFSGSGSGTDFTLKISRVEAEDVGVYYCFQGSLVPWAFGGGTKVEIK
output: 0.564
